The reported measurements were obtained from patent US8048881B2.

biological target: human P2Y12 receptor (Homo sapiens, UniProt Q9H244); assay: P2Y12 receptor binding assay; settings: CHO cells with recombinant expression of the human P2Y12 receptor; tritium-labeled 2-methyl-S-ADP; incubation at room temperature for 2 hours
Sequence (Q9H244 whole entry): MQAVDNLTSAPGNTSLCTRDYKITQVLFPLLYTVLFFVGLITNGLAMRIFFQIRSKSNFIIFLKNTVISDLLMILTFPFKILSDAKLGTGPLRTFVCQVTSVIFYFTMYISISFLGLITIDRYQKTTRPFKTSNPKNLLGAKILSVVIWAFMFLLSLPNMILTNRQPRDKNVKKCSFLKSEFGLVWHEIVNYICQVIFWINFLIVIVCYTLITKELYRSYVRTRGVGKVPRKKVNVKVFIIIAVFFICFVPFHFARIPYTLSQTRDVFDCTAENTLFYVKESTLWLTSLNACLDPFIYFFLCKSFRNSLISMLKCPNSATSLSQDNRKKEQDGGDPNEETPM
Where a name gives a salt, the structure may show the parent alone.
measurementName: IC50 (µM)
I only need the number, in µM, no unit after it.

The following molecules have reported results that may help.
CCOC(=O)N1CCN(C(=O)[C@H](CCC(=O)O)NC(=O)c2cc(N3CCC[C@@H]3COC)nc(-c3ccccc3)n2)CC1 [Example 324, formate salt] :: 0.061
CCOC(=O)N1CCN(C(=O)[C@H](Cc2ccc(C(=O)O)cc2)NC(=O)c2cc(NC(C)C)nc(-c3ccccc3)n2)CC1 [Example 115] :: 0.39
C#Cc1cc(C(=O)N[C@@H](CCC(=O)O)C(=O)N2CCN(C(=O)OCC)CC2)nc(-c2ccccc2)n1 [Example 258] :: 0.253
CCOC(=O)N1CCN(C(=O)[C@H](CCC(=O)O)NC(=O)c2cc(/C=C/CCO)nc(-c3ccccc3)n2)CC1 [Example 421] :: 0.075

Any idea what IC50 was measured for CCOC(=O)N1CCN(C(=O)[C@H](CCC(=O)O)NC(=O)c2cc(OC3CCCC3)nc(-c3ccccc3)n2)CC1 [Example 1] ?
0.117

Same for CCOC(=O)N1CCN(C(=O)[C@H](CCC(=O)O)NC(=O)c2cc(OCC3CC3)nc(-c3ccccc3)n2)CC1 [Example 27]
0.193

Same for CCOC(=O)N1CCN(C(=O)[C@H](CCCC(=O)O)NC(=O)c2cc(-c3ccccc3)nc(-c3ccccc3)n2)CC1 [Example 121]
0.127

Same for CCOC(=O)N1CCN(C(=O)[C@H](CCc2nnn[nH]2)NC(=O)c2cc(OC3CCCC3)nc(-c3ccccc3)n2)CC1 [Example 19]
0.127

Same for CCOC(=O)N1CCN(C(=O)C(Cc2cccc(OCC(=O)O)c2)NC(=O)c2cc(OC3CCCC3)nc(-c3ccccc3)n2)CC1 (stereo not shown) [Example 31]
0.592

----------
# pIC50 per record follows
molecular target: human P2Y12 receptor (Homo sapiens, UniProt Q9H244); experiment: P2Y12 receptor binding assay; conditions: CHO cells with recombinant expression of the human P2Y12 receptor; tritium-labeled 2-methyl-S-ADP; incubation at room temperature for 2 hours
Expect pIC50 as a plain number equal to -log10 of the molar concentration.

CCOC(=O)N1CCN(C(=O)[C@H](CO)NC(=O)c2cc(OC3CCCC3)nc(-c3ccccc3)n2)CC1 :: 6.51
CC(C)OC(=O)N1CCN(C(=O)[C@H](CCC(=O)O)NC(=O)c2cc(OC3CCCC3)nc(-c3ccccc3)n2)CC1 :: 7.02
CCOC(=O)N1CCN(C(=O)[C@H](CCC(=O)O)NC(=O)c2cc(C#CC(O)CC)nc(-c3ccccc3)n2)CC1 (stereo partly shown) :: 6.90

Any idea what pIC50 was measured for CCOC(=O)N1CCN(C(=O)[C@H](CCC(=O)O)NC(=O)c2cc(CS(=O)(=O)CC)nc(-c3ccccc3)n2)CC1 ?
6.97

Same for CCCC(CCC)C(=O)Nc1cc(C(=O)N[C@@H](CCC(=O)O)C(=O)N2CCN(C(=O)OCC)CC2)nc(-c2ccccc2)n1
6.77

Same for CCOC(=O)N1CCN(C(=O)[C@H](CCC(=O)O)NC(=O)c2cc(-c3cn[nH]c3)nc(-c3ccccc3)n2)CC1
7.14

Same for CCOC(=O)N1CCN(C(=O)[C@H](CCC(=O)O)NC(=O)c2cc(-c3ccc[n+]([O-])c3)nc(-c3ccccc3)n2)CC1
6.89

----------
# pIC50 per record follows
Target: human P2Y12 receptor (Homo sapiens, UniProt Q9H244)
Experiment: P2Y12 receptor binding assay
Conditions: CHO cells with recombinant expression of the human P2Y12 receptor; tritium-labeled 2-methyl-S-ADP; incubation at room temperature for 2 hours
Method: P2Y12 Receptor Binding Assay Chinese Hamster Ovary (CHO) cells with recombinant expression of the human P2Y12 receptor were cultured in 24 well cell-culture plates. Cells were washed three times with binding buffer (50 mM Tris pH 7.4, 100 mM NaCl, 1 mM EDTA, 0.5% BSA). […]
Structures can show the parent of a compound that is named as a salt.
Expect pIC50 as a plain number equal to -log10 of the molar concentration.

The following compounds have reported results that may help.
CCOCc1cc(C(=O)N[C@@H](CCC(=O)O)C(=O)N2CCN(C(=O)OCC)CC2)nc(-c2ccccc2)n1 :: 6.73
CCOC(=O)N1CCN(C(=O)[C@H](CCC(=O)O)NC(=O)c2cc(-c3cccc(C)c3)nc(-c3ccccc3)n2)CC1 :: 6.70
CCOC(=O)N1CCN(C(=O)[C@H](CCC(=O)O)NC(=O)c2cc(C(F)(F)F)nc(-c3ccccc3)n2)CC1 :: 6.77

Let us move to another entry and its pIC50.
Any idea what pIC50 was measured for CCOC(=O)N1CCN(C(=O)[C@H](CCC(=O)O)NC(=O)c2cc(NC(C)COC)nc(-c3ccccc3)n2)CC1 (stereo partly shown) [Example 223, formate salt] ?
7.01
